# assay.explanation: ASC/caspase-1 reporter retest in S. cerevisiae at one dose, specificity check for NALP1 project (AID 488857)
# reported.conditions: S. cerevisiae ASC/Caspase-1, beta-galactosidase luminescence, 24 h; at 10 µM
Hit rate of the full screen: of about 1,400 compounds, about 560 (40%) were called active.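 Rule for the calls: active = mean inhibition over duplicate tests at 10 µM above 50%; inactive = the rest.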 So high a share suggests a set chosen from earlier hits. This is one part of the list.
// one of true = active, false = inactive, no free text

Please let me know the test result on file for CN1c2ccccc2-c2nc3ccccc3n2C1c1cccs1 (centres undefined) .
true

Please let me know the test result on file for CC(C)(C)C1=CC(=O)C(=O)C(C(C)(C)C)=C1 .
false

Please let me know the test result on file for Cn1ncc(S(=O)(=O)Cc2ccccc2)c(Cl)c1=O .
false

Please let me know the test result on file for Cc1sc2ncnc(N/N=C/c3ccccc3O)c2c1C .
true

Please let me know the test result on file for Cc1ccccc1N(CC(=O)N/N=C/c1ccccc1Cl)C(=O)c1ccccc1 .
false

Please let me know the test result on file for Cc1sc(N)nc1-c1ccc(Oc2ccccc2)cc1 .
true

Please let me know the test result on file for Cc1cccc(NC(=O)c2ccc(C3SCC(=O)N3CCc3ccccc3)cc2)c1C (centres undefined) .
true

Please let me know the test result on file for COc1ccc(C2SCC(=O)N2CCCN(C)C)cc1 (centres undefined) .
false

Please let me know the test result on file for COc1ccc(-c2csc(N3C(=O)C4C5c6ccccc6C(c6ccccc65)[C@@H]4C3=O)n2)cc1 (some centres undefined) .
false

Please let me know the test result on file for Nc1nc2ccc(Oc3ccccc3)cc2s1 .
true

Please let me know the test result on file for Cc1ccc(Nc2cc(C)nc(NCc3ccccc3)n2)cc1 .
true

Please let me know the test result on file for O=C(N/N=C\c1cccc([N+](=O)[O-])c1O)C1COc2ccccc2O1 (centres undefined) .
true

Please let me know the test result on file for Cc1c(Cl)sn(-c2ccc(Cl)cc2)c1=O .
true

Please let me know the test result on file for COc1ccc(-c2nc(N)n(S(=O)(=O)c3ccc(C)cc3)n2)cc1 .
true

Please let me know the test result on file for Cc1nc2cc(-c3ccc(Cl)cc3)nn2c(C)c1CCC(=O)NC(C)c1ccc2c(c1)OCCO2 (centres undefined) .
false

Please let me know the test result on file for Cc1ccc(/C(COc2ccccc2O)=N\O)cc1 .
false

Please let me know the test result on file for Cc1cc(C)cc(Cn2ncc(Cl)c(Cl)c2=O)c1 .
true

Please let me know the test result on file for Cc1ccc(NC(=O)CN(C)C(=O)COc2cccc3cccnc23)cc1 .
false

Please let me know the test result on file for Nc1nc(-c2ccc(Oc3ccccc3)cc2)cs1 .
true

Please let me know the test result on file for COc1cccc(/C=N/NC(=O)CNC(=O)C2COc3ccccc3O2)c1O (centres undefined) .
false

Please let me know the test result on file for CSC1=N/C(=C\c2cccnc2)C(=O)N1c1ccccc1 .
false

Please let me know the test result on file for Cc1ccc(Oc2ccccc2/C=N/O)cc1 .
true

Please let me know the test result on file for Cc1cc(N/N=C/c2ccccc2)nc(NCc2ccccc2)n1 .
true

Please let me know the test result on file for c1csc(CNc2nc3ccccc3n2CCN2CCOCC2)c1 .
false
